The measured values listed here are drawn from the supplement of paper PMC8728848.

# study system: Gal(b1-3)Gal
# test protocol: glycan array binding signal (z-score within array); higher = stronger binding
# conditions: glycan notation: IUPAC condensed, linker removed
About 410 targets per protein were measured; listed, in parts, are those with the strongest signals and a random draw of the rest.

- binder: "MLTim-4 (Mus musculus), Q6U7R4 (protein) MSKGLLLLWLVTELWWLYLTPAASEDTIIGFLGQPVTLPCHYLSWSQSRNSMCWGKGSCPNSKCNAELLRTDGTRIISRKSTKYTLLGKVQFGEVSLTISNTNRGDSGVYCCRIEVPGWFNDVKKNVRLELRRAT"
  glycan array binding signal (z-score): 0.543
- binder: "Arath Fbox LD (Arabidopsis thaliana) (protein) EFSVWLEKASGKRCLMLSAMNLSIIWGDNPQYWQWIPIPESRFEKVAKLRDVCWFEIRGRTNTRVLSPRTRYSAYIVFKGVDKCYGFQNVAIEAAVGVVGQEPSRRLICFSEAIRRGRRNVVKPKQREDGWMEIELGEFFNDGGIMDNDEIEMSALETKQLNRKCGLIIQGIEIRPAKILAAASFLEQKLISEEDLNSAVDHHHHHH"
  glycan array binding signal (z-score): -0.517
- binder: "HFR-3 (Triticum aestivum) (protein) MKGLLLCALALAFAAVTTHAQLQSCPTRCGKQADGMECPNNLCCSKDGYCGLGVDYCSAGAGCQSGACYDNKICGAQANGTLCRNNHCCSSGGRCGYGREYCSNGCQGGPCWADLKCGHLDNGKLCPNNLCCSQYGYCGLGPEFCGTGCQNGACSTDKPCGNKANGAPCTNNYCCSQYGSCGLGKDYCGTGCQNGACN"
  glycan array binding signal (z-score): -0.289
- binder: "C-Reactive Protein (Homo sapiens), P02741 (protein) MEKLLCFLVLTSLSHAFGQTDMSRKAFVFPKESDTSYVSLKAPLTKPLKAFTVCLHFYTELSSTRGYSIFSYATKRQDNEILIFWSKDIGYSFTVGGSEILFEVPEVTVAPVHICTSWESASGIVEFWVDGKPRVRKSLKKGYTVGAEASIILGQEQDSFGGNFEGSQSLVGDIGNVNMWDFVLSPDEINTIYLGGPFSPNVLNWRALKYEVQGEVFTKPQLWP"
  glycan array binding signal (z-score): -0.554
- binder: "SIGNR8 (Mus musculus) (protein) MAGEPEFHQSKNHEEEVTSGEQGFAEHDPEGLICSSKSLQGHLTQVPWLLLLLISLGLFLLMLATLVQVSRIRAYSQGQTQDQQGSSSLDKVAVPREQTHSGLEQIQQIQQQLTQFNASLAGLCRPCPWDWELFQGSCYLFSRTLGSWETSASSCEDLGAHLVIVNSVSEQRFMKYWNVRKNQRSWIGLSDHIHEGSWQWVDGSALKFSFWKEGEPNNDGDEDCVELFMDDWNDNKCTEQNFWVCEQPSAPCPHH"
  glycan array binding signal (z-score): 4.35
- binder: "CCL1 (Coprinopsis cinerea) (protein) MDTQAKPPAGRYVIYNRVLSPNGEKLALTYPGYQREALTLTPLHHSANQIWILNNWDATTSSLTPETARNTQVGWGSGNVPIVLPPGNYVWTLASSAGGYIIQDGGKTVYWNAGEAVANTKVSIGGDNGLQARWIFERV"
  glycan array binding signal (z-score): -0.15
